- System: DU-145 prostate
- protocol_text: NCI-60 one-dose screen, 48 h (100 = growth as untreated, 0 = no growth, -100 = all killed)
- details: 10 µM unless noted
The panel holds about 83,000 compounds, 20% with a hit somewhere; the sample as a whole holds those more often.
Please assign no (0) whenever growth is at or above 40%, and yes (1) whenever it is below.

Lab log: compare recorded growth with 40%; is it strictly lower for `Cc1cc(C#Cc2ccccc2)ccc1-n1c(/C=C/c2ccc(F)cc2)nc2ccccc2c1=O` ?
no (0)

Please check: growth for `CCc1ccc(Nc2ncnc3c2cnn3-c2cccc(Br)c2)cc1` , strictly under 40% or not?
no (0)

Quick check: does CCCCN(CCCC)CCC(O)c1cc2ccc(C(F)(F)F)cc2c2cc(C(F)(F)F)ccc12 (centres undefined) have growth under 40%?
no (0)

# TODO verify growth < 40% strictly for this compound: CC(C)CC(NC(=O)C(CCCN=C(N)N)NC(=O)OCc1ccccc1)C(=O)NC(CNC(=O)/C=C/c1ccccc1)C(C)C (centres undefined)
no (0)

Quick check: does `c1ccc2c(Cc3csc4ccccc34)csc2c1` have growth under 40%?
no (0)

Identify whether the compound `O=[N+]([O-])c1cc(F)c2cccnc2c1O` records growth below 40%.
no (0)

Please check: growth for `O=C(c1ccccc1)N(CCCCl)C(=O)N(CCCCl)C(=O)c1ccccc1` , strictly under 40% or not?
no (0)

Say whether its growth is strictly beneath 40%. Entry: CCOC(=O)C1=C(C)NC(SCc2nnc(-c3ccc(Cl)cc3)o2)=NC1c1ccc(Cl)cc1 (centres undefined)
no (0)

Hi there! Is growth for `NC(N)=N/N=C\c1ccc(OCc2ccccc2)cc1` below 40%, do you know?
no (0)

Dear colleague, could you confirm whether growth of `Cc1ccc(-c2nc3ccccc3c(=O)n2/N=C/c2cccc3ccccc23)cc1` falls below 40%? Thanks.
no (0)

hey, is growth for CCCCNCC(O)c1cc(-c2ccc(C(F)(F)F)cc2)nc(-c2ccc(C(F)(F)F)cc2)c1 (centres undefined) lower than 40% or not?
yes (1)

Consider the compound `COc1ccc(-n2nc(C(=O)NCC(=O)Nc3nc4cc(OC)ccc4s3)c3ccccc3c2=O)cc1` . Is its growth strictly less than 40%?
yes (1)

Threshold test, growth < 40%: Nc1n[nH]c2ccc([C@@H]3Nc4c(F)cc5[nH]ncc5c4[C@H]4C5CCC(C5)[C@@H]34)cc12 (some centres undefined)
yes (1)

Just wondering, is growth of `Clc1ccc(Nc2ncnc3c2sc2ncccc23)cc1` below 40%?
yes (1)

Strictly below 40% in growth? `Cc1cc(C)c2c(NC(=O)Nc3ccc(Cl)c(Cl)c3)n[nH]c2n1`
no (0)

Is the reported growth for `COc1ccc(NC(=O)/C=C/c2ccc(Cl)c(Cl)c2)cn1` strictly below 40%?
no (0)

Hi there! Is growth for `O=C(NC1CC1)c1ccc(-c2nc3ccc4[nH]ncc4c3c3c2CCCC3)cc1` below 40%, do you know?
yes (1)

In the record for `COc1cc(/C=C/c2ccc3c(Br)cc(Br)c(O)c3n2)ccc1O` , is growth less than 40%?
no (0)

Field: below-cutoff. Rule: recorded growth strictly less than 40%. Subject: COc1ccc(/C=C2\CCCC3=C2N=C2SC(C)=NN2C3c2ccc(OC)c(OC)c2)cc1OC (centres undefined)
yes (1)

Is growth of COc1ccc(C2C3=C(COC3=O)N(CCO)c3cc(OC)c(OC)cc32)cc1 (centres undefined) strictly below 40%?
no (0)

Please determine if `CN=C1C=C/C(=N/N=c2/ccn(O)cc2C)C=C1C` is below 40% in terms of growth.
no (0)

# TODO verify growth < 40% strictly for this compound: `O=C(CN1CCN(c2ccccc2)CC1)N1CCN(c2nnc(-c3ccc(Cl)cc3)c(-c3ccc(Cl)cc3)n2)CC1`
no (0)

Quick check: does CCOc1c(C#N)c2c(N)ncnc2n1C1OC(CO)C(O)C1O (centres undefined) have growth under 40%?
yes (1)

Quick check: growth of CCCCNCCC(O)c1cc2ccc(C(F)(F)F)cc2c2cc(C(F)(F)F)ccc12 (centres undefined) under 40%?
yes (1)

Field: below-cutoff. Rule: recorded growth strictly less than 40%. Subject: `CC(=O)Nc1nonc1-c1nc2ccccc2n1Cc1ccc(C(C)(C)C)cc1`
no (0)

Please state whether growth is below 40% for CCN(CC)CCCC(C)Nc1cnc(C(=O)Nc2cc(C)cc3cccnc23)cn1 (centres undefined)
no (0)

Hi there! Is growth for Nc1nc(N)c2c(n1)NC(c1sc(Cl)nc1Cl)CC(c1ccccc1)=N2 (centres undefined) below 40%, do you know?
no (0)

Take the compound `CC[C@H](Nc1nc(N)nc(N)c1Cl)c1nc2cccc(NCc3ccc(C(=O)NO)cc3)c2c(=O)n1-c1ccccc1` and say whether its growth is less than 40%.
yes (1)

Would you kindly verify if growth of `CNC(=O)c1cc(Oc2ccc(NC(=O)c3nc(S(C)(=O)=O)sc3-c3ccc(F)cc3)cc2)ccn1` is strictly less than 40%?
yes (1)

In plain terms, does `Oc1c(-c2cc(C(F)(F)F)[nH]n2)cc(Cl)c(OCc2ccc(Cl)cc2)c1-c1ccc(Cl)c(C(F)(F)F)c1` come in under 40% for growth?
yes (1)

# check: growth < 40% for `Cc1ccc(NC(=O)c2nc(S(C)(=O)=O)oc2-c2ccc(F)cc2)cc1Nc1ccc2ncn(C)c(=O)c2c1`
no (0)

State whether 40% exceeds growth recorded for `FC(F)(F)C1=NNC(c2ccc3ccccc3c2)=NN1` .
no (0)

Is the reported growth for `O=C(c1ccc(C(F)(F)F)c(Cl)c1)N(Cc1ccc(Cl)cc1)c1ccc(-c2cc(C(F)(F)F)[nH]n2)c(O)c1` strictly below 40%?
yes (1)

Is the reported growth for CCOC(=O)c1ccccc1SC(C[N+](=O)[O-])c1ccccc1 (centres undefined) strictly below 40%?
no (0)

State whether 40% exceeds growth recorded for Fc1[nH]nc2ccc([C@@H]3Nc4ccc5[nH]ncc5c4[C@H]4C5CCC(C5)[C@@H]34)cc12 (some centres undefined) .
yes (1)

Input `COc1ccc(Sc2[nH]c(C=O)c3ccccc23)cc1` ; condition: growth strictly below 40%. Does it hold?
no (0)

Lab note: confirm whether the reported growth for this compound is below 40%, equality not counting. compound: `CC[C@H](Nc1nc(N)nc(C2CC2)c1C#N)c1nc2cccc(NCc3ccc(C(=O)NO)cc3)c2c(=O)n1-c1ccccc1`
yes (1)

Please let me know if OC(c1cc2c(Cl)cc(Cl)cc2c2cc(C(F)(F)F)ccc12)C1CCCCN1 (centres undefined) shows growth below 40%.
yes (1)

I'd appreciate it if you could check whether O=C(Nc1ccccc1)C(CCCCN1C(=O)c2ccccc2C1=O)N1C(=O)c2ccccc2C1=O (centres undefined) has growth smaller than 40%.
no (0)

---

- Test system: UO-31 renal
- protocol_text: NCI-60 one-dose screen, 48 h (100 = growth as untreated, 0 = no growth, -100 = all killed)
- details: 10 µM unless noted
The panel holds about 83,000 compounds, 20% with a hit somewhere; the sample as a whole holds those more often.
property: growth (%)
Provide only the numeric value, understood in %.

Would you mind telling me what growth value was observed for `O=C(c1ccc(C(F)(F)F)c(Cl)c1)N(Cc1ccc(Cl)cc1)c1ccc(-c2cc(C(F)(F)F)[nH]n2)c(O)c1` ?
5.66

Can you share its growth? I mean this compound: C#CC[C@@H]1C[C@]2(C)[C@H]3CC[C@@H]4[C@H]5C(C(=C)C)CC[C@]5(C(=O)NCCCCN)CC[C@@]4(C)[C@]3(C)CC[C@H]2C(C)(C)[C@H]1OC(C)=O (some centres undefined)
-97.1

Item under review: Cc1ccc(C2CC(c3cccs3)=NN2c2ccc(S(N)(=O)=O)cc2)s1 (centres undefined) . Reported growth?
75.8

Report growth for `Clc1ccc2c(c1)-c1ccccc1C1=NCCN12` please.
10.8

growth for COC1CC(N)C2OC(c3ccccc3)OCC2O1 (centres undefined) ?
97.6

Any idea what growth was measured for `COc1ccc2nc(C)cc(Nc3ccccc3O)c2c1` ?
-56.1

Any idea what growth was measured for `COc1cc(OC)cc(-c2n/c(=C\c3c(O)[nH]c4ccc(Cl)cc34)cc3c2=Nc2ccccc2-3)c1` ?
66.4

Dear colleague, I am looking for the recorded growth of the following compound: COc1cc(NCCCCC(C)N)c2nccc(C)c2c1 (centres undefined)
38.2

Query: growth; subject: `CCOC(=O)c1sc2nc(-c3cc4ccccc4o3)cc(-c3ccc(Cl)cc3)c2c1N`
87.2

---

- System: RPMI-8226 leukemia
- protocol_text: NCI-60 one-dose screen, 48 h (100 = growth as untreated, 0 = no growth, -100 = all killed)
- details: 10 µM unless noted
This is part of a sample that, as a whole, favours compounds with a hit. Of some 83,000 tested, about 20% had one in any assay.
For each record, write down the corresponding growth.
# value in %; strip the unit string

Fill in: growth of Fc1[nH]nc2ccc([C@@H]3Nc4ccc5[nH]ncc5c4[C@H]4C5CCC(C5)[C@@H]34)cc12 (stereo not given in full) is ___
18.2

State the recorded growth for this entry: `COc1ccc(NC(=O)/C=C/c2ccc(Cl)c(Cl)c2)cn1`
49.7

What does the data say about its growth? Entry: `CCCCCCCCCCCCCCCCOc1ccc(S(=O)(=O)N(C)C)cc1[N+](=O)[O-]`
107

Recorded growth of `Cc1ccc(NC(=O)c2nc(S(C)(=O)=O)oc2-c2ccc(F)cc2)cc1Nc1ccc2ncn(C)c(=O)c2c1` , please.
19.3

What value of growth has been reported for the following compound? Cc1ccc(NC(=O)c2nc(S(C)=O)oc2-c2ccc(F)cc2)cc1Nc1nccc(-c2cccnc2)n1 (stereo not given)
5.05
